Measured values drawn from paper PMC10999543 for this set.

# Test system: HeLa cells
# Method description: Compound screen by flow cytometry: HeLa cell count as surrogate readout of cell viability (z-scoreHeLa); further: test concentration or dose not given here
# Format: cell-based, human
# Experimental context: compound screen, HeLa cell count, replicate 1
Endpoint name: z-scoreHeLa rep 1
Answer as a number with no unit attached.

{"columns": ["Compound", "z-scoreHeLa rep 1"],
 "data": [
  ["Fc1cccc(COc2ccc(Nc3ncnc4sc(-c5ccc[nH]5)cc34)cc2Cl)c1 [GW707818B]", 1.13],
  ["CN(C)C(=O)O[C@@H]1CN[C@@H](C#Cc2cc3ncnc(Nc4ccc(OCc5cccc(F)c5)c(Cl)c4)c3s2)C1 [GSK238063A]", -1.43],
  ["Cn1cc(-c2cnc(N)c3c(-c4ccc5c(c4)CCN5C(=O)Cc4ccccc4)csc23)cn1 [GSK2593074A]", -3.54],
  ["Cn1cc(-c2ccc3c(c2)CCN3C(=O)Cc2cc(F)cc(C(F)(F)F)c2)c2c(N)ncnc21 [GSK2635225A]", 0.31],
  ["O=C(Nc1n[nH]c2cc(-c3cccs3)ccc12)C1CC1", -1.08]
]}

Turning to the following compound.
Problem: Look up and report measured z-scoreHeLa rep 1 (HeLa cells) for the following compound: COc1ccc2[nH]c3c4[nH]c5ccc(OC)cc5c4c4c(c3c2c1)C(=O)NC4=O [GW296115X]
Solution: -0.30

###

# Tested on: HeLa cells
# Method description: Compound screen by flow cytometry: HeLa cell count as surrogate readout of cell viability (z-scoreHeLa); further: test concentration or dose not given here
# Type: cell-based, human
# Experimental context: PKIS compounds raw data; replicate 2; HeLa cell count
Endpoint name: cell count rep 2
Answer as a number with no unit attached.

{"columns": ["Compound", "cell count rep 2"],
 "data": [
  ["CC(C)c1nc(-c2cccc(NS(=O)(=O)c3c(F)cccc3F)c2F)c(-c2ccnc(Nc3ccc(N4CCOCC4)nc3)n2)s1 [GSK2008607A]", 3908],
  ["Cc1ccc2c(c1)C(=NNc1ccc(S(N)(=O)=O)cc1)C(=O)N2 [GW275944X]", 4418],
  ["c1ccc(-c2cc3ccncc3cc2OC2CCNCC2)cc1 [GSK1122999D]", 6353]
]}

Turning to the following compound.
Problem: Quick one: give measured cell count rep 2 for CN(C)c1cc2c(Nc3ccc4c(cnn4Cc4ccccc4)c3)ncnc2cn1 [GW282974X]
Solution: 6633

###

Recorded z-scoreMRSA+ rep 2 for the following compounds
# Tested on: intracellular MRSA; further: test concentration or dose not given here
# Assay type: cell-based, Staphylococcus aureus
# Experimental context: compound screen, MRSA-infected HeLa cells, replicate 2
Answer as a number with no unit attached.

Problem: Quick one: give measured z-scoreMRSA+ rep 2 for Nc1nccc2scc(-c3ccc4c(c3)CCN4C(=O)Cc3ccccc3)c12 [GSK2576924A]
Solution: 0.41

Problem: Quick one: give measured z-scoreMRSA+ rep 2 for COc1cc2c(Nc3ccc(NC(=O)c4ccccc4)cc3)ncnc2cc1OCCCN1CCOCC1 [GSK301329A]
Solution: 0.48

Problem: Quick one: give measured z-scoreMRSA+ rep 2 for COc1ccc(Nc2nccc(-c3ccc(NC(=O)c4cc5cc(F)ccc5[nH]4)cc3)n2)cc1 [GSK1229496A]
Solution: 0.43

Problem: Quick one: give measured z-scoreMRSA+ rep 2 for Cc1c2ccc(N(C)c3ccnc(Nc4cccc(S(N)(=O)=O)c4)n3)cc2nn1Cc1ccccc1 [GW787226A]
Solution: -0.49

Problem: Quick one: give measured z-scoreMRSA+ rep 2 for Cc1ccc(C(=O)Nc2ccc(Nc3ccnc4cc(-c5ccccn5)ccc34)cc2O)cc1 [GW440146A]
Solution: -1.12

Problem: Quick one: give measured z-scoreMRSA+ rep 2 for CCN(CC)CCOc1ccc(Nc2ncc3cc(-c4c(Cl)cccc4Cl)c(=O)n(C)c3n2)cc1 [SB-601273]
Solution: 1.33

Problem: Quick one: give measured z-scoreMRSA+ rep 2 for COc1cccc(-n2nc(C)c3c(N/N=C(\C)c4ccncc4)ncnc32)c1 [GW809885X]
Solution: -1.45

Problem: Quick one: give measured z-scoreMRSA+ rep 2 for COc1ccc(CNC(=O)NC2CCN(c3ccnc(Nc4cc(OC)c(OC)c(OC)c4)n3)C2)cc1 (stereo not shown) [GSK1379748A]
Solution: 0.19

Problem: Quick one: give measured z-scoreMRSA+ rep 2 for Cl.Cl.Cl.Fc1ccc(-c2ncn(C3CCNCC3)c2-c2ccnc(Nc3ccccc3)n2)cc1 [SB-238039-R]
Solution: -2.29

Problem: Quick one: give measured z-scoreMRSA+ rep 2 for CS(=O)(=O)Nc1ccc(N/C=C2\C(=O)Nc3ccccc32)cc1 [GW278681X]
Solution: 0.07
